Property: Kd; scope: individual compounds
# Test Description: Binding affinity to 5'-Biotin-GGTTAGAGTTAGGTTTTCCTAACTCTAACC-3' (unknown origin) in HBS-EP buffer at pH 7.4 at 25 degC by SPR analysis

# Smiles Input, Kd / nM
measured = [
    ("CN(CCCN)CCCNC(=O)CCNC(=O)c1cc(NC(=O)c2cc(NC(=O)c3cc(NC(=O)c4cc(NC(=O)[C@H](N)CCNC(=O)c5cc(NC(=O)c6nc(NC(=O)c7nccn7C)cn6C)cn5C)cn4C)cn3C)cn2C)cn1C", 10.6),
    ("CN(CCCN)CCCNC(=O)CCNC(=O)c1cc(NC(=O)c2cc(NC(=O)c3cc(NC(=O)c4cc(NC(=O)[C@H](N)CCNC(=O)c5cc(NC(=O)c6nc(NC(=O)c7nc(NC(=O)c8nccn8C)cn7C)cn6C)cn5C)cn4C)cn3C)cn2C)cn1C", 51.1),
    ("CN(CCCN)CCCNC(=O)CCNC(=O)c1nc(NC(=O)c2cc(NC(=O)c3cc(NC(=O)c4cc(NC(=O)[C@H](N)CCNC(=O)c5cc(NC(=O)c6nc(NC(=O)c7nccn7C)cn6C)cn5C)cn4C)cn3C)cn2C)cn1C", 30.4),
]

----------
# Test Description: Binding affinity to human telomeric sequence in HBS-EP buffer at pH 7.4 at 25 degC by SPR analysis
pKd: −log10 of the molar value.
Property: pKd; scope: individual molecules

# Smiles Input, pKd
rows = [
    ("CN(CCCN)CCCNC(=O)CCNC(=O)c1cc(NC(=O)c2cc(NC(=O)c3cc(NC(=O)c4cc(NC(=O)[C@H](N)CCNC(=O)c5cc(NC(=O)c6nc(NC(=O)c7nccn7C)cn6C)cn5C)cn4C)cn3C)cn2C)cn1C", 9.37),
    ("CN(CCCN)CCCNC(=O)CCNC(=O)c1cc(NC(=O)c2cc(NC(=O)c3cc(NC(=O)c4cc(NC(=O)[C@H](N)CCNC(=O)c5cc(NC(=O)c6nc(NC(=O)c7nc(NC(=O)c8nccn8C)cn7C)cn6C)cn5C)cn4C)cn3C)cn2C)cn1C", 8.81),
    ("CN(CCCN)CCCNC(=O)CCNC(=O)c1nc(NC(=O)c2cc(NC(=O)c3cc(NC(=O)c4cc(NC(=O)[C@H](N)CCNC(=O)c5cc(NC(=O)c6nc(NC(=O)c7nccn7C)cn6C)cn5C)cn4C)cn3C)cn2C)cn1C", 8.75),
    ("CN(CCCNC(=O)CCNC(=O)c1nc(NC(=O)c2cc(NC(=O)c3cc(NC(=O)c4cc(NC(=O)[C@@H](CCNC(=O)c5cc(NC(=O)c6nc(NC(=O)c7nccn7C)cn6C)cn5C)NC(=O)COCCOCCNC(=O)c5nc(NC(=O)c6cc(NC(=O)c7cc(NC(=O)c8cc(NC(=O)[C@H](N)CCNC(=O)c9cc(NC(=O)c%10nc(NC(=O)c%11nccn%11C)cn%10C)cn9C)cn8C)cn7C)cn6C)cn5C)cn4C)cn3C)cn2C)cn1C)CCCNS(=O)(=O)c1ccc(C2=c3cc4c5c(c3Oc3c2cc2c6c3CCCN6CCC2)CCC[N+]=5CCC4)c(S(=O)(=O)[O-])c1", 9.03),
]
